# assay-explanation: Inhibition of acetate buffer-initiated beta-hematin polymerization at 50 uM measured after 48 hrs relative to control
parameter: inhibition (%)
Answers are plain numbers, in %.

Below are worked cases with known answers.
CC(C)(C)NCc1ccc(Nc2ccnc3cc(Cl)ccc23)cc1.Cl
98.6
CCN(CC)CCCC(C)Nc1ccnc2cc(Cl)ccc12 (centres undefined) [CHLOROQUINE]
98.6

List the reported inhibition of each compound below.
1. CCN(CC)Cc1ccc(Nc2ccnc3cc(Cl)ccc23)cc1
2. Clc1ccc2c(Nc3ccc(CN4CCOCC4)cc3)ccnc2c1

Key:
[98.2, 5.17]

* * *

# assay-explanation: Hemolytic activity in human RBC after 45 mins by spectrophotometric method
# Assay type: ADME, cell-based, Erythrocyte
# condition-description: red blood cells (erythrocytes)
parameter: HC50 at 0.75 h (mM)
One number for each entry, in mM.

List the reported HC50 at 0.75 h of each compound below.
1. CCN(CC)Cc1ccc(Nc2ccnc3cc(Cl)ccc23)cc1
2. CC(C)(C)NCc1ccc(Nc2ccnc3cc(Cl)ccc23)cc1.Cl
3. Clc1ccc2c(Nc3ccc(CN4CCOCC4)cc3)ccnc2c1

Key:
1: 2.92; 2: 1.49; 3: 0.591
